These entries and their values trace back to paper PMC12920294.

Mouse blood plasma stability, intact radiopeptide listing for selected molecules.
# Format: in vitro ADME
# details: 24 h, 1 µM
I only need the number, in %, no unit after it.

A selection of reference data follows.
[
  {
    "molecule": "Cc1ccc(CCCC(=O)NCCOCCOCCOCCOCCC(=O)NC[C@H](NC(=O)CN2CCN(CC(=O)O)CCN(CC(=O)O)CCN(CC(=O)O)CC2)C(=O)N[C@@H](CC(=O)O)C(=O)N[C@@H](CC2CCCCC2)C(=O)N[C@@H](Cc2ccccc2)C(=O)N[C@H](CO)C(=O)N[C@H](CCCNC(=N)N)C(=O)N[C@@H](Cc2ccc(O)cc2)C(=O)N[C@@H](CC(C)C)C(=O)N[C@@H](Cc2c[nH]c3ccccc23)C(=O)N[C@@H](CO)C(N)=O)cc1 [[^177Lu]Lu-uPAR-14, metal not drawn]",
    "data.value": 99
  },
  {
    "molecule": "Cc1ccc(CCCC(=O)NCCOCCOCCOCCC(=O)NCCCC[C@H](NC(=O)CN2CCN(CC(=O)O)CCN(CC(=O)O)CCN(CC(=O)O)CC2)C(=O)N[C@@H](CC(=O)O)C(=O)N[C@@H](CC2CCCCC2)C(=O)N[C@@H](Cc2ccccc2)C(=O)N[C@H](CO)C(=O)N[C@H](CCCNC(=N)N)C(=O)N[C@@H](Cc2ccc(O)cc2)C(=O)N[C@@H](CC(C)C)C(=O)N[C@@H](Cc2c[nH]c3ccccc23)C(=O)N[C@@H](CO)C(N)=O)cc1 [[^177Lu]Lu-uPAR-15, metal not drawn]",
    "data.value": 94
  }
]

Look at this molecule and give its reported Mouse blood plasma stability, intact radiopeptide. Cc1ccc(CCCC(=O)NCCCCCCCC(=O)NCCCC[C@H](NC(=O)CN2CCN(CC(=O)O)CCN(CC(=O)O)CCN(CC(=O)O)CC2)C(=O)N[C@@H](CC(=O)O)C(=O)N[C@@H](CC2CCCCC2)C(=O)N[C@@H](Cc2ccccc2)C(=O)N[C@H](CO)C(=O)N[C@H](CCCNC(=N)N)C(=O)N[C@@H](Cc2ccc(O)cc2)C(=O)N[C@@H](CC(C)C)C(=O)N[C@@H](Cc2c[nH]c3ccccc23)C(=O)N[C@@H](CO)C(N)=O)cc1 [[^177Lu]Lu-uPAR-12, metal not drawn] 99

Report Mouse blood plasma stability, intact radiopeptide for Cc1ccc(CCCC(=O)NCCOCCOCCOCCOCCC(=O)NCCCC[C@H](NC(=O)CC[C@H](C(=O)O)N2CCN(CC(=O)O)CCN(CC(=O)O)CCN(CC(=O)O)CC2)C(=O)N[C@@H](CC(=O)O)C(=O)N[C@@H](CC2CCCCC2)C(=O)N[C@@H](Cc2ccccc2)C(=O)N[C@H](CO)C(=O)N[C@H](CCCNC(=N)N)C(=O)N[C@@H](Cc2ccc(O)cc2)C(=O)N[C@@H](CC(C)C)C(=O)N[C@@H](Cc2c[nH]c3ccccc23)C(=O)N[C@@H](CO)C(N)=O)cc1 [[^177Lu]Lu-uPAR-17, metal not drawn] please. 61

Give the measured Mouse blood plasma stability, intact radiopeptide of Cc1ccc(CCCC(=O)NCCOCCOCCOCCOCCOCCC(=O)NCCCC[C@H](NC(=O)CN2CCN(CC(=O)O)CCN(CC(=O)O)CCN(CC(=O)O)CC2)C(=O)N[C@@H](CC(=O)O)C(=O)N[C@@H](CC2CCCCC2)C(=O)N[C@@H](Cc2ccccc2)C(=O)N[C@H](CO)C(=O)N[C@H](CCCNC(=N)N)C(=O)N[C@@H](Cc2ccc(O)cc2)C(=O)N[C@@H](CC(C)C)C(=O)N[C@@H](Cc2c[nH]c3ccccc23)C(=O)N[C@@H](CO)C(N)=O)cc1 [[^177Lu]Lu-uPAR-18, metal not drawn] . 89

Requested field: Mouse blood plasma stability, intact radiopeptide. Item: Cc1ccc(CCCC(=O)NCCOCCOCCOCCOCCC(=O)NCCCC[C@H](NC(=O)CN2CCN(CC(=O)O)CCN(CC(=O)O)CCN(CC(=O)O)CC2)C(=O)N[C@@H](CC(=O)O)C(=O)N[C@@H](CC2CCCCC2)C(=O)N[C@@H](Cc2ccccc2)C(=O)N[C@H](CO)C(=O)N[C@H](CCCNC(=N)N)C(=O)N[C@@H](Cc2ccc(O)cc2)C(=O)N[C@@H](CC(C)C)C(=O)N[C@@H](Cc2c[nH]c3ccccc23)C(=O)N[C@@H](CO)C(N)=O)cc1 [[^177Lu]Lu-uPAR-11, metal not drawn] 95
